system: Plasmodium berghei; assay: Screen against P. berghei liver stage (PbLuc), transformed with Luciferase, at 2uM; assay type: functional, HepG2; conditions: tested at 2 uM
In all, about 68,000 compounds went through this assay and about 2,700 (4%) showed an effect of 50% or more. This is one part of a sample in which strong results are shown more often than they occur.

{"COMPOUND": "CCc1csc(C2CCCN(C(=O)c3ccc(=O)n(CC)n3)C2)n1 (stereo not drawn)", "OUTPUT UNIT": "%", "INHIBITION": 60.09}
{"COMPOUND": "CCN(CC)S(=O)(=O)NCC(O)c1c(Cl)cccc1Cl (stereo not drawn)", "OUTPUT UNIT": "%", "INHIBITION": 51}
{"COMPOUND": "CCc1csc(C2CCCN(C(=O)c3c[nH]c(C)n3)C2)n1 (stereo not drawn)", "OUTPUT UNIT": "%", "INHIBITION": 33.91}
{"COMPOUND": "CN1CCN(C2CCN(Cc3nc(-c4ccoc4)no3)CC2)C1=O", "OUTPUT UNIT": "%", "INHIBITION": -17.31}
{"COMPOUND": "c1ccc(CN2CCc3ncnc(C4CC4)c3CC2)cc1", "OUTPUT UNIT": "%", "INHIBITION": 14.13}
{"COMPOUND": "Cc1ccc(F)cc1S(=O)(=O)NCc1cccc(C(=O)N2CCCC2)c1", "OUTPUT UNIT": "%", "INHIBITION": 33.8}
{"COMPOUND": "Cn1ccnc1CN1CCc2ncnc(N3CCCC(C#N)C3)c2CC1 (stereo not drawn)", "OUTPUT UNIT": "%", "INHIBITION": 23.64}
{"COMPOUND": "Cc1csc(C2CCCN(C(=O)c3c[nH]c(C)n3)C2)n1 (stereo not drawn)", "OUTPUT UNIT": "%", "INHIBITION": -92.68}
{"COMPOUND": "O=C(Cc1ccon1)N1CCc2cc(Br)sc2C1", "OUTPUT UNIT": "%", "INHIBITION": -10.14}
{"COMPOUND": "CCc1csc(C2CCCN(C(=O)c3ccc(OC)nn3)C2)n1 (stereo not drawn)", "OUTPUT UNIT": "%", "INHIBITION": 11.18}
{"COMPOUND": "Cc1nc(C(=O)N2CCCC(c3nc(C(C)C)cs3)C2)c[nH]1 (stereo not drawn)", "OUTPUT UNIT": "%", "INHIBITION": 77.56}
{"COMPOUND": "O=C1CC(c2ccc(C(=O)O)cc2)c2ncn(-c3cccc(Cl)c3)c2N1 (stereo not drawn)", "OUTPUT UNIT": "%", "INHIBITION": 53.61}
{"COMPOUND": "CN(C)C(=O)N1CC[C@@H](O)[C@@H]1Cc1ccccc1", "OUTPUT UNIT": "%", "INHIBITION": 48.52}
{"COMPOUND": "Cc1ccc(S(=O)(=O)NCc2cccc(C(=O)N3CCCC3)c2)cc1F", "OUTPUT UNIT": "%", "INHIBITION": 47.84}
{"COMPOUND": "CC(C)c1csc(C2CCCN(C(=O)Cn3ccccc3=O)C2)n1 (stereo not drawn)", "OUTPUT UNIT": "%", "INHIBITION": 54.92}
{"COMPOUND": "Cc1noc(C)c1CNCc1ccccc1N(C)C1CCN(C)CC1", "OUTPUT UNIT": "%", "INHIBITION": 50.46}
{"COMPOUND": "CC(C)n1ccc(C(=O)NCC(O)c2c(Cl)cccc2Cl)n1 (stereo not drawn)", "OUTPUT UNIT": "%", "INHIBITION": -6.2}
{"COMPOUND": "O=C1CC(c2ccc(C(=O)O)cc2)c2ncn(-c3cccc(F)c3)c2N1 (stereo not drawn)", "OUTPUT UNIT": "%", "INHIBITION": -20.06}
{"COMPOUND": "Cc1csc(C2CCCN(C(=O)Cn3ccccc3=O)C2)n1 (stereo not drawn)", "OUTPUT UNIT": "%", "INHIBITION": 42.29}
{"COMPOUND": "C[C@@H](NC(=O)c1cnccn1)c1c(-c2ccc(F)cc2)noc1C(=O)O", "OUTPUT UNIT": "%", "INHIBITION": 34.79}
{"COMPOUND": "Cc1cccc(CN2C(=O)C[C@H]3[C@@H]2CCN3CC2CC2)n1", "OUTPUT UNIT": "%", "INHIBITION": 3.86}
{"COMPOUND": "Cn1cncc1CN1CCC2(CC1)COCCN(S(C)(=O)=O)C2", "OUTPUT UNIT": "%", "INHIBITION": -38.72}
{"COMPOUND": "CCCS(=O)(=O)NCC(O)c1c(Cl)cccc1Cl (stereo not drawn)", "OUTPUT UNIT": "%", "INHIBITION": -35.21}
